Test system: SK-OV-3 ovarian
procedure_summary: NCI-60 one-dose screen, 48 h (100 = growth as untreated, 0 = no growth, -100 = all killed)
condition_parameters: 10 µM unless noted
About 83,000 compounds went through this panel and 20% of them were active in at least one assay; those are over-represented in the sample as a whole. The source made the active and inactive calls. The calls were made as follows: active = growth percent below 10; inactive = the rest.
metric: growth

C/C(=N\NC(=O)C(C)SC(C)C(=O)N/N=C(\C)c1cccnc1)c1cccnc1 (stereo not drawn) = 109% (inactive)
Cn1c(=O)c2c(nc(Br)n2CC(=O)Nc2ccc(F)cc2)n(C)c1=O = 102% (inactive)
CC(=O)c1c(C)[nH]c(-c2nc3ccc(N4CCN(C)CC4)cc3[nH]2)c1-c1ccc(N(C)C)cc1 = 12.6% (inactive)
Cc1ccc(-c2nn(Cc3cn(-c4cc(C)nc5ccccc45)nn3)c3ncnc(N)c23)cc1 = 56.5% (inactive)
Fc1ccc(NCc2nnc(-c3ccc(Cl)cc3)o2)cc1 = 81.5% (inactive)
Cn1cc(-c2csc(-c3cn(CCN)c4ccccc34)n2)c2cccnc21 = 63.8% (inactive)
Cc1ccc(S(=O)(=O)Nc2ccc(-c3cc(-c4cccc(F)c4)c(C#N)c(=O)[nH]3)cc2)cc1 = 99.7% (inactive)

Please turn your attention to the following entry.
Which growth value belongs to CCCCC[C@H]1CC=C2C(=O)C(Cl)=C[C@@H]2CC=CCCCC(=O)O[C@@H](CCCCC)CC=C2C(=O)C(Cl)=C[C@@H]2CC=CCCCC(=O)O[C@@H](CCCCC)CC=C2C(=O)C(Cl)=C[C@@H]2CC=CCCCC(=O)O1 ?
120% [8 µM] (inactive)

----------
Tested on: NCI-H460 lung
procedure_summary: NCI-60 one-dose screen, 48 h
condition_parameters: 10 µM unless noted
Compounds without any hit were thinned out: in the full panel of roughly 83,000, 20% have a hit. Activity calls are given as the source filed them. How the source made its calls: active means growth percent below 10; inactive means the rest.
// classify into y (active), n (inactive)

Reference set (5 entries):
C(=C\c1c[nH]c2ccccc12)/c1ccc2ccccc2n1 = n
COc1cc2c(cc1OC)C(=O)/C(=C/c1cc(-c3ccc4c(c3)OCO4)n[nH]1)C2 = y
COC(=O)[C@@H]1[C@H]2C[C@H]3c4[nH]c5cc(OC)ccc5c4CCN3C[C@@H]2C[C@H](OC(=O)/C=C/c2ccnc(OC)c2)[C@H]1OC = n
COC(=O)[C@]12CC[C@@H](C(C)=O)[C@@H]1[C@H]1CC[C@@H]3[C@@]4(C)C/C(=C/c5cccnc5)C(=O)C(C)(C)[C@@H]4CC[C@@]3(C)[C@]1(C)CC2 = n
CC(=O)Cc1nsc(NC(=O)c2ccoc2COc2ccccc2)n1 = n

For Cc1cc(N2CCCCC2)nc(N(CCNc2ccnc3cc(Cl)ccc23)Cc2ccco2)n1 , what call appears in the results of this test?
y

----------
System: KM12 colon
procedure_summary: NCI-60 one-dose screen, 48 h (100 = growth as untreated, 0 = no growth, -100 = all killed)
condition_parameters: 10 µM unless noted
Compounds without any hit were thinned out: in the full panel of roughly 83,000, 20% have a hit.
Returns: string. Value is Condition met if measured growth is below 80%, and Condition not met if it is greater than or equal to it.

COC(=O)[C@]12CC[C@@H](C)[C@H](C)[C@@H]1C1=CC[C@@H]3[C@@]4(C)C=C(O)C(=O)C(C)=C4CC[C@@]3(C)[C@]1(C)CC2 = Condition met
COc1cc(-c2cc3cc(O)ccc3oc2=O)cc(OC)c1OC = Condition not met
COCCNC1=C(Cl)C(=O)c2ccccc2C1=O = Condition not met

Take the molecule COc1ccccc1-n1cnc(N)c1C(=O)c1cc(OC)c(OC)c(OC)c1 and say whether its growth is less than 80%.
Condition met

Take the molecule CCN1CCN(c2nc(C)cc(N(CCCNc3ccnc4cc(Cl)ccc34)Cc3ccco3)n2)CC1 and say whether its growth is less than 80%.
Condition met

Take the molecule NCCNc1nc(-c2ccccc2)nc2nc(-c3ccccc3)oc12 and say whether its growth is less than 80%.
Condition not met
